Reference for the values: patent US11597727B2

Target: integrin α2β1 (Homo sapiens, UniProt P05556+P17301)
Sequence (P17301 30-1181): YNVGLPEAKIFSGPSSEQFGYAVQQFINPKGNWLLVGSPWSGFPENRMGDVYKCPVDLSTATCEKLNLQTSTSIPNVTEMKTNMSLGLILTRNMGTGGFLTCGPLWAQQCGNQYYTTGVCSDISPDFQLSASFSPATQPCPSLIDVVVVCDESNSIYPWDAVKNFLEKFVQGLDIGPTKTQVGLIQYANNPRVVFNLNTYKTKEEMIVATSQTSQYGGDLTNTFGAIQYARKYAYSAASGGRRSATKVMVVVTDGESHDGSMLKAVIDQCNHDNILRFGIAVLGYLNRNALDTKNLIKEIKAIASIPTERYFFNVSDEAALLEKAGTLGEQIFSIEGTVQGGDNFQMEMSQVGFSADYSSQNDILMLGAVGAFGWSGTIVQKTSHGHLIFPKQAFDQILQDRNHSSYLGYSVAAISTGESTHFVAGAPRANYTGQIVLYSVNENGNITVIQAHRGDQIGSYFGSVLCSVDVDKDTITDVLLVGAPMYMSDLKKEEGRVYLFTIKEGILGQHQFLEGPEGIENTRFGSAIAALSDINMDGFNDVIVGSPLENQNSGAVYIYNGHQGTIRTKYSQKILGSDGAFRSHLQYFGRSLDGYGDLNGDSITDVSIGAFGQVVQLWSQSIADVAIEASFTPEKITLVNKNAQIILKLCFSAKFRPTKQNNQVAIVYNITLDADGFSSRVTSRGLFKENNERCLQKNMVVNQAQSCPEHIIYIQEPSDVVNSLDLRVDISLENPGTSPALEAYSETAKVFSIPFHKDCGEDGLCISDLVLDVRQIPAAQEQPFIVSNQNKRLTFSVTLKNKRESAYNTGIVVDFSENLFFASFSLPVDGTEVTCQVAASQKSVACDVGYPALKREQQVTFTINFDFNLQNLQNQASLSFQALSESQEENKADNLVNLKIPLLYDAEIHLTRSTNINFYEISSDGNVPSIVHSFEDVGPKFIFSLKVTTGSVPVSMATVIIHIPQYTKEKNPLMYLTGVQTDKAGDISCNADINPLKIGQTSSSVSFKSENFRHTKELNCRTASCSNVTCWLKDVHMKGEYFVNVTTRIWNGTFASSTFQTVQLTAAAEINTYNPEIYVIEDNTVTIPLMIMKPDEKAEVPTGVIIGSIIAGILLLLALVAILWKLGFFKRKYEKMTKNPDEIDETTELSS
Sequence (P05556 21-798): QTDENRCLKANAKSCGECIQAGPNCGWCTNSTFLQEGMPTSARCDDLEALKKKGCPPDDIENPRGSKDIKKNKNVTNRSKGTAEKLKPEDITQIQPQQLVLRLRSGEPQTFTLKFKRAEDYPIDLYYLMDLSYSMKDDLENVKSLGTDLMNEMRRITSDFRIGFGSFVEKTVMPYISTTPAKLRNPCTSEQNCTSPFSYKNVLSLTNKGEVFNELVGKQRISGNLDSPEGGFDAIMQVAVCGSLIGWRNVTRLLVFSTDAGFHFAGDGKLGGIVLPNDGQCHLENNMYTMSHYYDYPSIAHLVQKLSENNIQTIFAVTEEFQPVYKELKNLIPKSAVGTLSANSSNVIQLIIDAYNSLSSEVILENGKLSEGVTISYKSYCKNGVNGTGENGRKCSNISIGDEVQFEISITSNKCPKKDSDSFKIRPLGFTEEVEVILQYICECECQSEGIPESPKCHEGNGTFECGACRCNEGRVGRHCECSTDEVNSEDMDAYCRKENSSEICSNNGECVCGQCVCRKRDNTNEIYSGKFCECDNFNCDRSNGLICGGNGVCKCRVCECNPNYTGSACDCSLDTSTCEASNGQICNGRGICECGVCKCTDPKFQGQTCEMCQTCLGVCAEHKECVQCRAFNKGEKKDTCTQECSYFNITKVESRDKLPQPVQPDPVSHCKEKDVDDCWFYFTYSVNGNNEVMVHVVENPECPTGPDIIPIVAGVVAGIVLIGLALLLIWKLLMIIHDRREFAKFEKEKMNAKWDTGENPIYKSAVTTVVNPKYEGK
Assay: HT 1080 cell adhesion assay on rat tail collagen I
Conditions: HT1080 (human fibrosarcoma) cells on rat tail collagen I, absorbance at 595 nm, triplicate; read-out: IC50s from HT 1080 Cell adhesion assay
Method: Cell adhesion Assay: Ninety-six-well flat-bottomed tissue culture plates were coated with rat tail collagen I for 1 hour at 37° C. After incubation, wells were blocked with 1% BSA at 37° C. for 1 hour. Control wells were filled with 1% BSA. […] The relative number of cells in each well was evaluated after solubilization in 40 μl of 2% Triton X-100 by measuring absorbance at 595 nm in a microplate reader. […]
List of IC50 values.

As a guide, the following entries are already answered.
O=C(NC[C@H](NC(=O)c1c(Cl)cccc1Cl)C(=O)O)N[C@@H]1CCCc2ccccc21; < 10 µM
Cc1cccc(CNC(=O)NC[C@H](NC(=O)c2c(Cl)cccc2Cl)C(=O)O)c1; 10 to 100 µM
O=C(NCc1cccs1)NC[C@H](NC(=O)c1c(Cl)cccc1Cl)C(=O)O; 10 to 100 µM

Next up:
**Query** Which value of IC50 has been reported for COc1ccccc1CNC(=O)NC[C@H](NC(=O)c1c(Cl)cccc1Cl)C(=O)O in the records?
**Result** 10 to 100 µM
